# Tested on: A498 renal
# EXPERIMENT SUMMARY: NCI tumour cell line growth inhibition, 48 h; in the data active = GI50 below about 0.43 µM; inactive = the rest
Outcomes: active, inactive

[[record]]
compound = "COc1cc([N+](=O)[O-])c(OC)cc1-c1nc2sc(C)cn2c1/C(N)=N/C(=N)N"
class = "inactive"

[[record]]
compound = "O=C(COc1cccc(/C=C2\\CSc3ccc(Cl)cc3C2=O)c1)c1ccc(Cl)cc1"
class = "inactive"

[[record]]
compound = "Cc1ccc2cccc(OC(=O)Nc3cccc(C(F)(F)F)c3)c2n1"
class = "inactive"

[[record]]
compound = "Clc1cc(Cl)c(OCCCCCCN2CCNCC2)c(Cl)c1"
class = "inactive"

[[record]]
compound = "C=CC(=O)N1C[C@@H]2CCOc3c(Cl)c(-c4c(O)cccc4F)c(F)c4ncnc(c34)N2C[C@H]1C"
class = "inactive"

[[record]]
compound = "COc1ccc(/C=C2\\COc3ccc(O)c(O)c3C2=O)c(OC)c1OC"
class = "inactive"

[[record]]
compound = "NC(=S)N/N=C1\\c2ccccc2-c2c(F)c(F)c(F)c(F)c21"
class = "inactive"

[[record]]
compound = "COC1=C(C)C(=O)c2c(c(CCCl)c3n2CCC3OC(C)=O)C1=O (stereo unspecified)"
class = "active"

[[record]]
compound = "C#CC[C@@H]1C[C@]2(C)[C@H]3CC[C@@H]4[C@H]5C(C(=C)C)CC[C@]5(C(=O)NCCCCCCCCN)CC[C@@]4(C)[C@]3(C)CC[C@H]2C(C)(C)[C@H]1OC(C)=O (stereo partly specified)"
class = "inactive"

[[record]]
compound = "O=[N+]([O-])c1ccc(C(Cl)C(Cl)c2ccc(C(Cl)C(Cl)c3ccc([N+](=O)[O-])cc3[N+](=O)[O-])cc2)c([N+](=O)[O-])c1 (stereo unspecified)"
class = "inactive"

[[record]]
compound = "N#CC(C#N)=C1CCOc2ccc(F)cc21"
class = "inactive"

[[record]]
compound = "CC(=O)CC/C=C(\\C)[C@H](O)[C@H](C)C(=O)O[C@H]1C[C@H](C)C=C2C=C[C@@]3(C)O[C@@H](O)CC(=O)[C@]3(C)[C@H]21"
class = "inactive"

[[record]]
compound = "O=C(c1ccc(C(F)(F)F)c(Cl)c1)N(Cc1ccc(Cl)cc1)c1ccc(-c2cc(C(F)(F)F)[nH]n2)c(O)c1"
class = "inactive"

[[record]]
compound = "COc1cc(/C=C2\\CCC/C(=C\\c3ccc(O)c(OC)c3)C2=O)ccc1O"
class = "inactive"

[[record]]
compound = "Cc1ccc(C=C2C(Cl)=C(Cl)C(Cl)=C2Cl)cc1"
class = "inactive"

[[record]]
compound = "CC(C)(C)c1cc(/C=N/NC(=O)c2ccccc2NC(=O)c2cccs2)c(O)c(C(C)(C)C)c1"
class = "inactive"


* * *

Overview of recorded GI50 for various compounds
# Test system: SK-MEL-2 melanoma
# EXPERIMENT SUMMARY: NCI tumour cell line growth inhibition, 48 h
OBSERVATION TYPE: GI50

[[record]]
compound = "COc1ccc(CCN(CC(=O)N(CC(N)=O)C2CCC[C@@H]2OCc2ccccc2)C(=O)CN(C(=O)CN(CCc2ccc(Cl)cc2)C(=O)CN(C(=O)CN(C)Cc2ccccc2F)[C@H](C)C2CCCCC2)[C@H](C)C2CCCCC2)cc1OC (some centres not stated)"
recorded_value = "946 nM"

[[record]]
compound = "O=C(O)c1cc(=O)cc(C(=O)O)o1"
recorded_value = "> 100000 nM"

[[record]]
compound = "CC(C)(c1ccccc1)c1cc(O)c(C(C)(C)c2ccccc2)cc1O"
recorded_value = "2960 nM"

[[record]]
compound = "O=c1cnnc(N/N=C/c2ccccc2O)[nH]1"
recorded_value = "21000 nM"

[[record]]
compound = "Oc1c(Cl)cc(Cl)cc1/C=N/Nc1nnc(N/N=C/c2cc(Cl)cc(Cl)c2O)c2ccccc12"
recorded_value = "770 nM"

[[record]]
compound = "O=Nc1c(-c2c(O)[nH]c3cc(Br)ccc23)[nH]c2ccccc12"
recorded_value = "1110 nM"

[[record]]
compound = "COc1ccc(/C=C2\\COc3ccc(O)c(O)c3C2=O)c(OC)c1OC"
recorded_value = "4700 nM"


* * *

# Tested on: PC-3 prostate
# EXPERIMENT SUMMARY: NCI tumour cell line growth inhibition, 48 h
OBSERVATION TYPE: GI50

[[record]]
molecule = "CC(C)(C)c1cc(/C=N/NC(=O)c2ccccc2NC(=O)c2cccs2)c(O)c(C(C)(C)C)c1"
observation_type = "GI50"
recorded_value = "2800 nM"

[[record]]
molecule = "COCCOC1=CC(=O)c2c(O)ccc(O)c2C1=O"
observation_type = "GI50"
recorded_value = "2670 nM"

[[record]]
molecule = "COc1ccc(CCN(CC(=O)N(CC(N)=O)C2CCC[C@@H]2OCc2ccccc2)C(=O)CN(C(=O)CN(CCc2ccc(Cl)cc2)C(=O)CN(C(=O)CN(C)Cc2ccccc2F)[C@H](C)C2CCCCC2)[C@H](C)C2CCCCC2)cc1OC (some centres not stated)"
observation_type = "GI50"
recorded_value = "1370 nM"

[[record]]
molecule = "CN(C)CC(=O)Nc1ccc2ncnc(Nc3ccc(Oc4cccc(C(F)(F)F)c4)c(Cl)c3)c2c1"
observation_type = "GI50"
recorded_value = "1820 nM"

[[record]]
molecule = "CN(C)CCCSc1ccccc1NC1=C(Cl)C(=O)C(Nc2ccccc2SCCCN(C)C)=C(Cl)C1=O"
observation_type = "GI50"
recorded_value = "1680 nM"

[[record]]
molecule = "COC(=O)[C@]12CC[C@@H](C)[C@H](C)[C@@H]1C1=CC[C@@H]3[C@@]4(C)C[C@@H](OC(=O)/C=C/c5ccccc5)[C@H](O)[C@@](C)(CO)[C@@H]4[C@H](O)C[C@@]3(C)[C@]1(C)CC2"
observation_type = "GI50"
recorded_value = "2550 nM"

[[record]]
molecule = "O=c1cnnc(N/N=C/c2ccccc2O)[nH]1"
observation_type = "GI50"
recorded_value = "2990 nM"


* * *

# Test system: SW-620 colon
# EXPERIMENT SUMMARY: NCI tumour cell line growth inhibition, 48 h
OBSERVATION TYPE: TGI

[[record]]
molecule = "CCC1C(C(=O)Nc2ccccc2C)=C(C)NC(C)=C1c1ccccc1C (stereo not given)"
recorded_value = "> 59.9 µM"

[[record]]
molecule = "COc1ccc2c(=O)cc(-c3ccc(OC)c(OC)c3OC)oc2c1"
recorded_value = "> 100 µM"

[[record]]
molecule = "S=c1c2[nH]cnc2ncn1CCSC1=NC=NC2=NC=NC21 (stereo not given)"
recorded_value = "> 100 µM"

[[record]]
molecule = "O=C1CC(c2ccccc2)Cc2nc3ccc(Br)cc3cc21 (stereo not given)"
recorded_value = "> 100 µM"

[[record]]
molecule = "O=C(Oc1c(Cl)cc(C2(c3cc(Cl)c(OC(=O)c4ccccc4)c(Cl)c3)CCCCC2)cc1Cl)c1ccccc1"
recorded_value = "39.5 µM"

[[record]]
molecule = "CC12CCC(=O)N1c1cncnc1N2 (stereo not given)"
recorded_value = "> 10 µM"

[[record]]
molecule = "CC(=O)OCC1OC(c2c(OC(C)=O)cc(C)c3c(=O)cc(/C(C(C)=O)=C(\\C)O)oc23)C(OC(C)=O)C(OC(C)=O)C1OC(C)=O (stereo not given)"
recorded_value = "> 100 µM"

[[record]]
molecule = "O=C(/C=C/c1ccccc1O)c1ccc([N+](=O)[O-])cc1"
recorded_value = "31.3 µM"

[[record]]
molecule = "O=C(O)CC(NC(=O)/C(=C/c1ccccc1)NC(=O)c1ccccc1)C(=O)O (stereo not given)"
recorded_value = "> 100 µM"

[[record]]
molecule = "CC(C)(C)C(=O)Nc1cccc2oc(-c3ccccc3)cc12"
recorded_value = "> 100 µM"

[[record]]
molecule = "O=c1[nH]c(N/N=C\\C(=N/Nc2nc3ccccc3c(=O)[nH]2)C(O)C(O)C(O)CO)nc2ccccc12 (stereo not given)"
recorded_value = "> 100 µM"

[[record]]
molecule = "CC(C)[C@@](O)(c1ccc2cc(OC(F)F)c(OC(F)F)cc2c1)c1cn[nH]n1"
recorded_value = "43.2 µM"

[[record]]
molecule = "CC1(CO)COS(=O)OC1 (stereo not given)"
recorded_value = "> 100 µM"

[[record]]
molecule = "CC(C)CCCC(C)[C@H]1CC[C@H]2n3c(nc4ccccc43)CCC[C@]12C (stereo not given in full)"
recorded_value = "47.3 µM"

[[record]]
molecule = "O=c1oc2ccccc2c(O)c1C(c1cnc2ccccc2c1)c1c(O)c2ccccc2oc1=O"
recorded_value = "> 100 µM"

[[record]]
molecule = "O=C(NNC1=NCCCN1)c1ccco1"
recorded_value = "> 100 µM"

[[record]]
molecule = "CC(=O)Nc1cccc(N2C(=O)/C(=C\\c3cccc(Oc4ccccc4)c3)S(=O)(=O)C2c2ccccc2)c1 (stereo not given)"
recorded_value = "> 100 µM"

[[record]]
molecule = "O=C(C=P(c1ccccc1)(c1ccccc1)c1ccccc1)CCl"
recorded_value = "2.12 µM"

[[record]]
molecule = "CC(=O)NCCCCN(CCCNC(C)=O)C(=O)CNS(=O)(=O)c1cccc2c(N(C)C)cccc12"
recorded_value = "> 100 µM"

[[record]]
molecule = "O=C(NCCCNCCN1C(=O)c2cccc3cc([N+](=O)[O-])cc(c23)C1=O)c1cc(-c2ccccc2)nc2ccccc12"
recorded_value = "5.37 µM"

[[record]]
molecule = "CCOC(=O)c1ccc(C(=O)n2ccnc2)[nH]1"
recorded_value = "> 100 µM"

[[record]]
molecule = "CN(C)Cc1cc(C(=O)/C=C/c2ccc(Cl)c(Cl)c2)cc(CN(C)C)c1O"
recorded_value = "3.19 µM"

[[record]]
molecule = "COc1cc([N+](=O)[O-])c(OC)cc1-c1nc2sc(C)cn2c1/C(N)=N/C(=N)N"
recorded_value = "> 100 µM"

[[record]]
molecule = "Cn1cc(-c2nc(-c3c[nH]c4ncccc34)cs2)c2ccccc21"
recorded_value = "> 100 µM"

[[record]]
molecule = "COC(=O)c1ccccc1CC1Cc2cc3c(cc2C1=O)CCC3 (stereo not given)"
recorded_value = "> 100 µM"

[[record]]
molecule = "O=C1/C(=C/c2ccc(O)cc2)CCc2ccc([N+](=O)[O-])cc21"
recorded_value = "> 100 µM"

[[record]]
molecule = "Clc1cc(Cl)c(OCCCCCCN2CCNCC2)c(Cl)c1"
recorded_value = "3.75 µM"

[[record]]
molecule = "N#CC1=C2SCCN2C(=O)C(C#N)C12CCCCC2 (stereo not given)"
recorded_value = "> 100 µM"

[[record]]
molecule = "COc1ccc(NC2=C(I)C(=O)c3ncccc3C2=O)cc1"
recorded_value = "3.06 µM"

[[record]]
molecule = "COC(=O)[C@]12CC[C@@H](C)[C@H](C)[C@@H]1C1=CC[C@@H]3[C@@]4(C)C[C@@H](OC(=O)/C=C/c5ccccc5)[C@H](O)[C@@](C)(CO)[C@@H]4[C@H](O)C[C@@]3(C)[C@]1(C)CC2"
recorded_value = "4.2 µM"

